What Neutralization IC50, H3-Pa99 was measured for each of the following?
Target system: HA of ca A/Panama/2007/99 (H3N2) (influenza A virus)
Procedure text: cell-based or functional assay
Answer in µg/mL, number only, no unit symbol.

Exam item: Return value of Neutralization IC50, H3-Pa99 for input Antibody 5 (antibody, V domains shown) VH: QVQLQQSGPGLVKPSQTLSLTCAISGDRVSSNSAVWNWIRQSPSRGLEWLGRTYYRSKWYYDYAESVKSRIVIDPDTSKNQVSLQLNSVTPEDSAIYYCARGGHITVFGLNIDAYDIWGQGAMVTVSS VL: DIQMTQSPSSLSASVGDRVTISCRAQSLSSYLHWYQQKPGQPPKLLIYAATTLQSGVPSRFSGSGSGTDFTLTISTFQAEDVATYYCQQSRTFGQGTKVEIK , no commentary.
Marked response: 16.7

Exam item: Return value of Neutralization IC50, H3-Pa99 for input Antibody 3 (antibody, V domains shown) VH: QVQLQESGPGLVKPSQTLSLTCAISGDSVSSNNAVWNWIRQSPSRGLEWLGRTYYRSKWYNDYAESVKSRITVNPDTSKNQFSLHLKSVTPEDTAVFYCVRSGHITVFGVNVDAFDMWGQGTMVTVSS VL: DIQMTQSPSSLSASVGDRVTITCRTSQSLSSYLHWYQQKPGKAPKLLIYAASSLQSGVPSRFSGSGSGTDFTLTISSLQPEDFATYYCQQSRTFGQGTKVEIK , no commentary.
Marked response: 17.7

Exam item: Return value of Neutralization IC50, H3-Pa99 for input Antibody 10 (antibody, V domains shown) VH: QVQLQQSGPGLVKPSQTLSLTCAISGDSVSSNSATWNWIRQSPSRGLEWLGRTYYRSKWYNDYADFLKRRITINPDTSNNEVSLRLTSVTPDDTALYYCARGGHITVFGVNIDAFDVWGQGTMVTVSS VL: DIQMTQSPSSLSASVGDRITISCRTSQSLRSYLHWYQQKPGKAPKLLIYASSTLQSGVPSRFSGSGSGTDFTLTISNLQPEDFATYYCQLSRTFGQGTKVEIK , no commentary.
Marked response: 18.7
